system: AncSZ; assay: phosphorylation enrichment, bacterial display (enrichment ratio); higher = better substrate or ligand; peptides without Tyr show the background;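 also: 11-residue human phosphosite peptides and single-mutation variants displayed on the E. coli surface, counted by deep sequencing, each peptide's frequency after selection divided by its frequency in the unselected input library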;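 also: frequency after pTyr selection over input frequency; kinase dosed for 20-30% of maximal phosphorylation in three min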
Exercise: for every item that follows, state its recorded phosphorylation enrichment.
Answer with the value's number alone.

Query string: Fill in the recorded phosphorylation enrichment for this sequence, with AncSZ as test system: SFLFRYADDSF [RAB3C_Y50]
Result string: 1.01

Query string: Write down the reported phosphorylation enrichment of TQNGVYSAANY [DDX5_Y535] , test system: AncSZ.
Result string: 0.69

Query string: Identify the measured phosphorylation enrichment of TTGLIYIGSHD [AASDH_Y870] for AncSZ.
Result string: 0.726

Query string: Lab note: need phosphorylation enrichment with AncSZ for entry TIMTDYNPNYC [ALK_Y1092] , please look it up.
Result string: 1.33

Query string: Find phosphorylation enrichment (AncSZ) for the entry RRIHSYRGHLC [VHL_Y112_W117C]
Result string: 0.774

Query string: I'm curious: which phosphorylation enrichment was measured for QDDFSYPSRQM [LDLR_Y847_G844D_YF] tested on AncSZ?
Result string: 0.791

Query string: # value lookup — system AncSZ, readout phosphorylation enrichment, item HQNGMYGLHQD [SGSH_Y89]
Result string: 0.643

Query string: Field: phosphorylation enrichment (AncSZ). Entry: SGGLDYGMVGG [TNRC6B_Y1382_M1380L]
Result string: 0.765

Query string: Entry QRKPSYNQLAS [BRCA2_Y71] , system AncSZ: what phosphorylation enrichment was measured?
Result string: 0.449

Query string: Lab note: need phosphorylation enrichment for LEKISYVYMKR [SSX7_Y48] on AncSZ, anyone have it?
Result string: 1.72

Query string: Reported phosphorylation enrichment for AncSZ, given CTNPRYLAAGS [RABL3_Y185] ?
Result string: 0.794

---

test system: c-Src; experiment: phosphorylation enrichment, bacterial display (enrichment ratio); higher = better substrate or ligand; peptides without Tyr show the background
outcome_measure: phosphorylation enrichment
Reply with just the number.

Query string: Returns the measured phosphorylation enrichment for the input sequence. Input: PSARTYCYKQE [KLHDC9_Y175]
Result string: 0.439

Query string: Give its phosphorylation enrichment value. Item: TSSSSYFDEPV [ARFGAP3_Y356]
Result string: 0.47

Query string: // lookup phosphorylation enrichment for GLAKEYTDPET [CSNK1G2_Y195_I196T]
Result string: 0.339

Query string: # input sequence: FSSLGYPPPEG [ZSWIM4_Y87_YF] ; wanted: its phosphorylation enrichment
Result string: 0.421

Query string: Query: phosphorylation enrichment; subject: ADFFDYGRGLS [KHDRBS3_Y304_H306R_YF]
Result string: 0.521

Query string: Consider the sequence shown here: LRYDVYGGENE [STOX1_Y610_E608D] What is its recorded phosphorylation enrichment?
Result string: 1.94

Query string: What phosphorylation enrichment value was documented for this sequence, KKMKRYHVGKV [HARS2_Y151] ?
Result string: 0.45

Query string: Entry GREFIYVDPMQ [PDGFRA_Y574_H570R_YF] has what phosphorylation enrichment?
Result string: 1.36

Query string: Form field: reported phosphorylation enrichment of KFDLMYAKWAF [TUBA3E_Y399]
Result string: 1.98

Query string: Which phosphorylation enrichment is listed for EEKKKYFDAKI [CASP5_Y103_T106A_YF] ?
Result string: 0.479

Query string: Sample IVGRLYRLLTE [SETX_Y1978_L1976R] — what was its phosphorylation enrichment?
Result string: 0.331

Query string: For the sequence AAGGRYYGLVG [HARS1_Y363_D364Y] , what phosphorylation enrichment is on record?
Result string: 0.867

Query string: Which measured phosphorylation enrichment value corresponds to EAESWYQTKFE [KRT75_Y342_YF] ?
Result string: 0.583

Query string: Returns the measured phosphorylation enrichment for the input sequence. Input: PLEGEYFTLQI [TP53_Y327_D324E]
Result string: 7.65

Query string: I have this sequence here, GDFFRYLAEVA [YWHAG_Y133_YF] , and I need its recorded phosphorylation enrichment.
Result string: 0.447

Query string: Which phosphorylation enrichment is listed for REQREYLDQLN [CCDC88B_Y1277] ?
Result string: 0.521

Query string: What phosphorylation enrichment value was documented for this sequence, SIRFNYLLDVL [FGFR4_Y237_YF] ?
Result string: 0.413

Query string: Reported phosphorylation enrichment for ATHSGYRLNDY [CLDN14_Y233] : what is it?
Result string: 0.493

Query string: Need phosphorylation enrichment, item RLVTRYIYNRE [HLA-DQB1_Y62_Y58L]
Result string: 0.532

Query string: Suppose we examine the sequence TQNGVYSAANY [DDX5_Y535] ; what phosphorylation enrichment value has been reported?
Result string: 6.11

Query string: Query: phosphorylation enrichment; subject: KFLVGYEMLAQ [GALT_Y339_M336L]
Result string: 0.378

Query string: Request the reported phosphorylation enrichment associated with IDGLEYLHSPG [STK11_Y166_Q170P]
Result string: 0.37

Query string: // lookup phosphorylation enrichment for RLAKTYKTTLE [ALB_Y377_E378K]
Result string: 0.441

Query string: Looking for the measured phosphorylation enrichment of ETKEDYEKILV [ANXA1_Y335_G333E] , can you help?
Result string: 0.484

Query string: Consider the sequence shown here: PEACDYGLGGG [GSTO1_Y239] What is its recorded phosphorylation enrichment?
Result string: 1.19

Query string: Record request: phosphorylation enrichment value, item DVAKEYGHLLP [HRC_Y99_S96A]
Result string: 0.52

Query string: Quick one: phosphorylation enrichment of LDFNEYFRDLN [HPRT1_Y198_YF] ?
Result string: 0.473

Query string: # input sequence: IVLRSYPASGH [NID2_Y449] ; wanted: its phosphorylation enrichment
Result string: 0.415

Query string: phosphorylation enrichment lookup needed for LLVVVYKYRCY [PSEN1_Y154_L153V] , thanks.
Result string: 0.662

Query string: If you can, please state the reported phosphorylation enrichment value of FLAVGYHKPFI [IDS_Y225_H229Y_YF] .
Result string: 0.39

Query string: Reported phosphorylation enrichment, sequence PIQLFYTRRNT [GHR_Y86] : ____
Result string: 0.919

Query string: Consider the sequence VERRVYAEDPF [PCCA_Y401_C398R_YF] and give its measured phosphorylation enrichment.
Result string: 0.462

Query string: Looking for the measured phosphorylation enrichment of LHRHAYPEQRQ [DPPA2_Y127] , can you help?
Result string: 0.449

Query string: Which phosphorylation enrichment value belongs to `ANNEYYFQVCA` ?
Result string: 0.892

Query string: Which phosphorylation enrichment is listed for FVPAAYVKKLD [SPTAN1_Y1020] ?
Result string: 0.49

---

Hi there, I'd appreciate the recorded phosphorylation enrichment for every entry that follows.
target: FGFR1 (UniProt P11362); assay: phosphorylation enrichment, bacterial display (enrichment ratio); higher = better substrate or ligand; peptides without Tyr show the background
Sequence (P11362 whole entry, looked up): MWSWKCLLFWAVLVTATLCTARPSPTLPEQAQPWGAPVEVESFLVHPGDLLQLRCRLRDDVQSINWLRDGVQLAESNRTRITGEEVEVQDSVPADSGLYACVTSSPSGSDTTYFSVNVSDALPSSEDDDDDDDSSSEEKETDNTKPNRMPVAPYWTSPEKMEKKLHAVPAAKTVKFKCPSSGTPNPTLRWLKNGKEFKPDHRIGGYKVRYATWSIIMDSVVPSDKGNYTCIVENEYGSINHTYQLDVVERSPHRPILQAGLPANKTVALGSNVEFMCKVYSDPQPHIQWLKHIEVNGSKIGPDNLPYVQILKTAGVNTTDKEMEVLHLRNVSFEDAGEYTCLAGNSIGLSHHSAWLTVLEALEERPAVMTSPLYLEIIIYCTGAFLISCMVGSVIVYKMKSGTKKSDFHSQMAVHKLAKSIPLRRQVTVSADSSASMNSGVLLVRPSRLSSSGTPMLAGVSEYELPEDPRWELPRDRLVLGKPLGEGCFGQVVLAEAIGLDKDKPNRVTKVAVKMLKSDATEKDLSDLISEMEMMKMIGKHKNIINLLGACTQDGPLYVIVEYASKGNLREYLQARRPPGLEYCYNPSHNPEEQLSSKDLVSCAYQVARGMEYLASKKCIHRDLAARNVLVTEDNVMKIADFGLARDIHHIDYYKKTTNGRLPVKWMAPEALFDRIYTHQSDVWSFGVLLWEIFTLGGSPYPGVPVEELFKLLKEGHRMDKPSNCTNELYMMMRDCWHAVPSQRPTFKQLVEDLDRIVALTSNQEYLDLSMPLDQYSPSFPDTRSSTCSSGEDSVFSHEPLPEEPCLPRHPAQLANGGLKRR
Please reply with the value in numeric form only.

Query string: # input sequence: PEADKYCLTFA [FGG_Y300_R301C_YF] ; wanted: its phosphorylation enrichment
Result string: 0.664

Query string: Reported phosphorylation enrichment for WIPIQYLIISE [NOG_Y222_P223L] : what is it?
Result string: 0.58

Query string: Please look up its phosphorylation enrichment: LGKGSYAKVRS [TSSK2_Y23_K27R]
Result string: 0.558

Query string: Entry under review: GIVEDYRPPVF [ACVRL1_Y421_F425V_YF] . Reported phosphorylation enrichment?
Result string: 0.414

---

test system: AncSZ; test: phosphorylation enrichment, bacterial display (enrichment ratio); higher = better substrate or ligand; peptides without Tyr show the background
We use 0.7 as the dividing line for phosphorylation enrichment: on or above the line is Satisfied, below is Not satisfied.

Query string: Form field: phosphorylation enrichment at least 0.7? Entry: CNSFQYGGGGG [NPPA_Y151_R150Q]
Result string: Satisfied

Query string: Does phosphorylation enrichment meet or surpass 0.7 for IYHLSYIHNCE [PDE6B_Y227_L228I] ?
Result string: Satisfied

Query string: Entry AAVDTYCRHNF [HLA-DRB1_Y107_YF] : is its phosphorylation enrichment no less than 0.7?
Result string: Satisfied

Query string: Does `AKIDGYITSFR` have a reported phosphorylation enrichment of at least 0.7?
Result string: Satisfied

Query string: Assess whether reported phosphorylation enrichment for NNHGNYIVRLG [ETFDH_Y172] sits at 0.7 or higher.
Result string: Not satisfied

Query string: Decide: is the reported value of phosphorylation enrichment for KTGNIYRTEFG [MRPL3_Y265_M261T_YF] equal to or greater than 0.7?
Result string: Not satisfied

Query string: Is reported phosphorylation enrichment greater than or equal to 0.7 here: QLHRKYCLSPR [HJURP_Y445_E444K]
Result string: Not satisfied

Query string: Decide: phosphorylation enrichment of RRRLIYRCQVG [NR2E3_Y81] >= 0.7?
Result string: Satisfied

Attribution: the supplement of paper PMC10065799
